Source listed as paper PMC5540273.

# Test system: MEK5
# Construct: gene MAP2K5
# condition: concentration: 1 μM,replicates: in singlicate; n = 1;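 further: KINOMEscan kinase panel screen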
# %Inh annotations
readout.label: %Inh (%)

>>> numeric_result("Cc1cc(C(=O)Nc2ccc(Oc3ccc4nc(NC(=O)C5CC5)cn4n3)cc2)nn1-c1ccccc1")
93.8
>>> numeric_result("Cc1n[nH]c2ccc(-c3cc(OC[C@@H](N)Cc4ccccc4)cnc3-c3ccoc3)cc12.O=C(O)C(F)(F)F.O=C(O)C(F)(F)F [GSK507358]")
85
>>> numeric_result("Cc1cc2cn[nH]c2cc1-c1cccc2c(N)c(C(N)=O)nnc12")
43
>>> numeric_result("C=CC(=O)Nc1cc2c(Nc3ccc(F)c(Cl)c3)ncnc2cc1OCCCN1CCOCC1 [GW781483]")
97.4

---

# Tested on: PIK3C2B
# condition: concentration: 1 μM,replicates: in singlicate; n = 1
readout.label: %Inh (%)

>>> numeric_result("Cc1cc2cn[nH]c2cc1-c1cccc2c(N)c(C(N)=O)nnc12")
0
>>> numeric_result("CC(C)N1C(=O)Cc2cc(Nc3ncc(C(F)(F)F)c(NCc4cccc(S(C)(=O)=O)c4)n3)ccc21")
3
>>> numeric_result("Cc1ccc2c(-c3ccncc3)c(-c3ccc(F)cc3)nn2c1.Cl")
0
>>> numeric_result("CC(C)Nc1cc(-c2ccc3c(N)n[nH]c3c2)nc(N)n1")
0
>>> numeric_result("Cl.Cl.Nc1nc(-c2ccc3c(N)n[nH]c3c2)cc(N2CCCC(NC(=O)c3ccccc3)C2)n1 (stereo not drawn)")
14
>>> numeric_result("C[C@@H]1CCN(C(=O)CC#N)C[C@@H]1N(C)c1ncnc2[nH]ccc12")
0
>>> numeric_result("C=CC(=O)Nc1cc2c(Nc3ccc(F)c(Cl)c3)ncnc2cc1OCCCN1CCOCC1")
2
>>> numeric_result("CN(C)CC(O)COc1ccc(Nc2nccc(-c3cnn4nc(N5CCOCC5)ccc34)n2)cc1 (stereo not drawn)")
43
>>> numeric_result("Cl.Oc1cc(-c2nc(-c3ccccc3)[nH]c2-c2ccncc2)ccc1Cl")
7
>>> numeric_result("CCN(CC)CCCCNc1ncc2cc(-c3c(Cl)cccc3Cl)c(NC(=O)NC(C)(C)C)nc2n1")
27
>>> numeric_result("C[C@H]1Oc2cc(cnc2N)-c2c(nn(C)c2C#N)CN(C)C(=O)c2ccc(F)cc21")
0
>>> numeric_result("C[C@@H](Oc1cc(-c2cnn(C3CCNCC3)c2)cnc1N)c1c(Cl)ccc(F)c1Cl")
10
>>> numeric_result("Cl.Cl.NC[C@H](Cc1ccc(C(F)(F)F)cc1)NC(=O)c1cc(Br)c(-c2ccnc3[nH]ccc23)s1")
0
>>> numeric_result("CNC(=O)c1ccccc1Sc1ccc2c(/C=C/c3ccccn3)n[nH]c2c1")
0
>>> numeric_result("CCn1c(-c2nonc2N)nc2c(C#CC(C)(C)O)nc(OCCN)cc21.Cl.Cl")
0

---

# Tested on: DYRK1A
# condition: concentration: 1 μM,replicates: in singlicate; n = 1
readout.label: %Inh (%)

>>> numeric_result("CN(C)CC(O)COc1ccc(Nc2nccc(-c3cnn4nc(N5CCOCC5)ccc34)n2)cc1 (centres unmarked)")
73
>>> numeric_result("Cc1cc(C(=O)Nc2ccc(Oc3ccc4nc(NC(=O)C5CC5)cn4n3)cc2)nn1-c1ccccc1")
0
>>> numeric_result("CC(C)N1C(=O)Cc2cc(Nc3ncc(C(F)(F)F)c(NCc4cccc(S(C)(=O)=O)c4)n3)ccc21")
2
>>> numeric_result("C=CC(=O)Nc1cc2c(Nc3ccc(F)c(Cl)c3)ncnc2cc1OCCCN1CCOCC1")
11
>>> numeric_result("CNC(=O)c1ccccc1Sc1ccc2c(/C=C/c3ccccn3)n[nH]c2c1")
0
>>> numeric_result("CCN(CC)CCOc1ccc(Nc2ncc3cc(-c4c(Cl)cccc4Cl)c(=O)n(C)c3n2)cc1")
0
>>> numeric_result("CCn1c(-c2nonc2N)nc2c(C#CC(C)(C)O)nc(OCCN)cc21.Cl.Cl")
25
>>> numeric_result("NC(=O)c1cc(-c2ccccc2)cc2c(C3CCNCC3)c[nH]c12")
28

---

# System: AKT3
# condition: concentration: 1 μM,replicates: in singlicate; n = 1
readout.label: %Inh (%)

>>> numeric_result("CC(C)Nc1cc(-c2ccc3c(N)n[nH]c3c2)nc(N)n1")
0
>>> numeric_result("CN(C)CCOc1ccc(-c2cc(-c3c[nH]nc3-c3ccccn3)ccn2)cc1")
0
>>> numeric_result("C[C@H]1Oc2cc(cnc2N)-c2c(nn(C)c2C#N)CN(C)C(=O)c2ccc(F)cc21")
0
>>> numeric_result("Cc1occc1-c1nc(N)c(OC[C@@H](N)Cc2c[nH]c3ccccc23)cc1-c1cc2c(C)n[nH]c2cn1")
89
>>> numeric_result("CNC(=O)c1ccccc1Sc1ccc2c(/C=C/c3ccccn3)n[nH]c2c1")
0
>>> numeric_result("C[C@@H]1CCN(C(=O)CC#N)C[C@@H]1N(C)c1ncnc2[nH]ccc12")
0
>>> numeric_result("C=CC(=O)Nc1cc2c(Nc3ccc(F)c(Cl)c3)ncnc2cc1OCCCN1CCOCC1")
7
>>> numeric_result("Cc1ccc(-n2nc(C(C)(C)C)cc2NC(=O)Nc2ccc(OCCN3CCOCC3)c3ccccc23)cc1")
0

---

# Tested on: DRAK2
# Construct: gene STK17B
# condition: concentration: 1 μM,replicates: in singlicate; n = 1
readout.label: %Inh (%)

>>> numeric_result("Cc1occc1-c1nc(N)c(OC[C@@H](N)Cc2c[nH]c3ccccc23)cc1-c1cc2c(C)n[nH]c2cn1")
0
>>> numeric_result("CCN(CC)CCOc1ccc(Nc2ncc3cc(-c4c(Cl)cccc4Cl)c(=O)n(C)c3n2)cc1")
21
>>> numeric_result("Cl.Cl.NC[C@H](CC1CCCCC1)NC(=O)c1cc(Br)c(-c2ccnc3[nH]ccc23)s1")
0
>>> numeric_result("C[C@H]1Oc2cc(cnc2N)-c2c(nn(C)c2C#N)CN(C)C(=O)c2ccc(F)cc21")
0

---

# %Inh annotations
# Test system: TSSK1B
# condition: concentration: 1 μM,replicates: in singlicate; n = 1
readout.label: %Inh (%)

>>> numeric_result("C[C@@H]1CCN(C(=O)CC#N)C[C@@H]1N(C)c1ncnc2[nH]ccc12")
0
>>> numeric_result("Cl.Cl.Nc1nc(-c2ccc3c(N)n[nH]c3c2)cc(N2CCCC(NC(=O)c3ccccc3)C2)n1 (centres unmarked) [GSK2286775]")
13
>>> numeric_result("NC(=O)c1cc(-c2ccccc2)cc2c(C3CCNCC3)c[nH]c12 [GSK301362]")
27
>>> numeric_result("CCN(CC)CCCCNc1ncc2cc(-c3c(Cl)cccc3Cl)c(NC(=O)NC(C)(C)C)nc2n1")
0
>>> numeric_result("Cc1ccc(-n2nc(C(C)(C)C)cc2NC(=O)Nc2ccc(OCCN3CCOCC3)c3ccccc23)cc1 [GW839464]")
10
>>> numeric_result("Cl.Oc1cc(-c2nc(-c3ccccc3)[nH]c2-c2ccncc2)ccc1Cl [SB-386023]")
0
>>> numeric_result("CC(C)N1C(=O)Cc2cc(Nc3ncc(C(F)(F)F)c(NCc4cccc(S(C)(=O)=O)c4)n3)ccc21")
0
>>> numeric_result("CC(C)Nc1cc(-c2ccc3c(N)n[nH]c3c2)nc(N)n1 [GSK2221681]")
1

---

# Test system: ACVR1
# condition: concentration: 1 μM,replicates: in singlicate; n = 1
readout.label: %Inh (%)

>>> numeric_result("Cl.Oc1cc(-c2nc(-c3ccccc3)[nH]c2-c2ccncc2)ccc1Cl [SB-386023]")
14
>>> numeric_result("Cl.Cl.NC[C@H](CC1CCCCC1)NC(=O)c1cc(Br)c(-c2ccnc3[nH]ccc23)s1 [GSK1581427]")
25
>>> numeric_result("Cc1occc1-c1nc(N)c(OC[C@@H](N)Cc2c[nH]c3ccccc23)cc1-c1cc2c(C)n[nH]c2cn1 [GSK1660450]")
0
>>> numeric_result("Cc1cc2cn[nH]c2cc1-c1cccc2c(N)c(C(N)=O)nnc12")
96.2

---

# System: PFTAIRE2
# condition: concentration: 1 μM,replicates: in singlicate; n = 1
readout.label: %Inh (%)

>>> numeric_result("COc1ccc(C[C@@H](CN)NC(=O)c2cc(Br)c(-c3ccnc4[nH]ccc34)s2)cc1.Cl.Cl [GSK1389063]")
3
>>> numeric_result("CNC(=O)c1ccccc1Sc1ccc2c(/C=C/c3ccccn3)n[nH]c2c1")
14
>>> numeric_result("CCn1c(-c2nonc2N)nc2c(C#CC(C)(C)O)nc(OCCN)cc21.Cl.Cl [GSK902056]")
0
>>> numeric_result("C[C@@H](Oc1cc(-c2cnn(C3CCNCC3)c2)cnc1N)c1c(Cl)ccc(F)c1Cl")
1
>>> numeric_result("Cc1cc2cn[nH]c2cc1-c1cccc2c(N)c(C(N)=O)nnc12")
29
>>> numeric_result("O=C(NCCCN1CCOC1=O)c1cnc(NCc2cc(Cl)ccc2Cl)nc1NC1CCCC1")
0
>>> numeric_result("CCN(CC)CCCCNc1ncc2cc(-c3c(Cl)cccc3Cl)c(NC(=O)NC(C)(C)C)nc2n1")
0
>>> numeric_result("Cc1cc(C(=O)Nc2ccc(Oc3ccc4nc(NC(=O)C5CC5)cn4n3)cc2)nn1-c1ccccc1")
0
